Test: Quantitative High-Throughput drug screen in 47 multiple myeloma cell lines against the NCATS MIPE library collection: EJM_DSMZ cell viability assay (AID 1918926; further: nearly all actives have a fitted effect of over 30% in size)
Conditions: EJM myeloma cell viability, CellTiter-Glo ATP, 48 h; series mostly up to 45.8 µM
Inconclusive results are not listed. Active and inactive are the calls of the source. The call rests on the fitted dose curve; in most records, active means well fitted cell-killing curve with a large enough effect; inconclusive means small, poorly fitted or top-dose-only effect, or effect the other way; inactive means no such curve, though single readings can be large or run the other way.
Classes used: active, inactive

In [3]: df
Out[3]:
                                    compound  classification
 0  O=C(O)C1CCCN(CCC=C(c2ccccc2)c2ccccc2)C1 (stereo unspecified)        inactive
 1             Nc1nc(N)nc(-c2cc(Cl)ccc2Cl)n1        inactive
 2                   CCCCOc1ccc(CC(=O)NO)cc1          active
 3  COc1ccccc1OCC(O)COC(N)=O (stereo unspecified)        inactive
 4  CN1CCN(c2c(F)cc3c(=O)c(C(=O)O)cn4c3c2OCN4C)CC1        inactive
 5  O=C(NCC1CN(c2ccc(N3CCOCC3=O)cc2)C(=O)O1)c1ccc(Cl)s1 (stereo unspecified)        inactive
 6                  O=NN(CCCl)C(=O)NC1CCCCC1        inactive
 7  CC(C(=O)O)c1ccc2c(c1)CC(=O)c1ccccc1S2 (stereo unspecified)        inactive
 8  CC[C@H](NC(C)C)[C@H](O)c1ccc(O)c2[nH]c(=O)ccc12        inactive
 9  Nc1nc(F)nc2c1ncn2[C@@H]1O[C@H](CO)[C@@H](O)[C@@H]1O          active
10  COc1cc([C@@H]2c3cc4c(cc3[C@H](O)[C@H]3COC(=O)[C@H]23)OCO4)cc(OC)c1OC        inactive
